Entry source: ChEMBL document CHEMBL6127083

# measured.on: Human immunodeficiency virus type 1 reverse transcriptase (Human immunodeficiency virus 1, UniProt Q72547)
# procedure.text: Inhibition of recombinant HIV-1 reverse transcriptase associated RNase H extracted from Escherichia coli BL21 (DE3) by microplate reader analysis
observation.type: IC50 (nM)

(1) COC(=O)C1C(=O)N(O)C(=O)c2ccccc21 (configuration not stated)
(2) O=C(NCc1ccccc1)C1C(=O)N(O)C(=O)c2ccccc21 (configuration not stated)
Smaller IC50 value? Options are 1 and 2 Answer by stating the label of the chosen item.
1

---

# System: Human immunodeficiency virus 1
# procedure.text: Antiviral activity against HIV-1 IIIB infected in human MT4 cells assessed as protection against virus induced cytopathic effect
# Type: functional, organism-based
# condition.context: Human immunodeficiency virus 1, IIIB
observation.type: EC50 (nM)

(a) O=C(CCC(=O)/C(O)=C/C(=O)c1cccc(Cc2ccccc2F)c1)/C(O)=C/C(=O)c1cccc(Cc2ccccc2F)c1
(b) O=C(O)/C(O)=C/C(=O)c1cccc(Cc2ccccc2F)c1
Out of a and b , name the one with the higher EC50. Answer by stating the label of the chosen item.
a
